- TESTED_TARGET: SMARCA4 (Homo sapiens, UniProt P51532)
- Construct: endogenous in cells
- Sequence (P51532 whole entry, species assumed): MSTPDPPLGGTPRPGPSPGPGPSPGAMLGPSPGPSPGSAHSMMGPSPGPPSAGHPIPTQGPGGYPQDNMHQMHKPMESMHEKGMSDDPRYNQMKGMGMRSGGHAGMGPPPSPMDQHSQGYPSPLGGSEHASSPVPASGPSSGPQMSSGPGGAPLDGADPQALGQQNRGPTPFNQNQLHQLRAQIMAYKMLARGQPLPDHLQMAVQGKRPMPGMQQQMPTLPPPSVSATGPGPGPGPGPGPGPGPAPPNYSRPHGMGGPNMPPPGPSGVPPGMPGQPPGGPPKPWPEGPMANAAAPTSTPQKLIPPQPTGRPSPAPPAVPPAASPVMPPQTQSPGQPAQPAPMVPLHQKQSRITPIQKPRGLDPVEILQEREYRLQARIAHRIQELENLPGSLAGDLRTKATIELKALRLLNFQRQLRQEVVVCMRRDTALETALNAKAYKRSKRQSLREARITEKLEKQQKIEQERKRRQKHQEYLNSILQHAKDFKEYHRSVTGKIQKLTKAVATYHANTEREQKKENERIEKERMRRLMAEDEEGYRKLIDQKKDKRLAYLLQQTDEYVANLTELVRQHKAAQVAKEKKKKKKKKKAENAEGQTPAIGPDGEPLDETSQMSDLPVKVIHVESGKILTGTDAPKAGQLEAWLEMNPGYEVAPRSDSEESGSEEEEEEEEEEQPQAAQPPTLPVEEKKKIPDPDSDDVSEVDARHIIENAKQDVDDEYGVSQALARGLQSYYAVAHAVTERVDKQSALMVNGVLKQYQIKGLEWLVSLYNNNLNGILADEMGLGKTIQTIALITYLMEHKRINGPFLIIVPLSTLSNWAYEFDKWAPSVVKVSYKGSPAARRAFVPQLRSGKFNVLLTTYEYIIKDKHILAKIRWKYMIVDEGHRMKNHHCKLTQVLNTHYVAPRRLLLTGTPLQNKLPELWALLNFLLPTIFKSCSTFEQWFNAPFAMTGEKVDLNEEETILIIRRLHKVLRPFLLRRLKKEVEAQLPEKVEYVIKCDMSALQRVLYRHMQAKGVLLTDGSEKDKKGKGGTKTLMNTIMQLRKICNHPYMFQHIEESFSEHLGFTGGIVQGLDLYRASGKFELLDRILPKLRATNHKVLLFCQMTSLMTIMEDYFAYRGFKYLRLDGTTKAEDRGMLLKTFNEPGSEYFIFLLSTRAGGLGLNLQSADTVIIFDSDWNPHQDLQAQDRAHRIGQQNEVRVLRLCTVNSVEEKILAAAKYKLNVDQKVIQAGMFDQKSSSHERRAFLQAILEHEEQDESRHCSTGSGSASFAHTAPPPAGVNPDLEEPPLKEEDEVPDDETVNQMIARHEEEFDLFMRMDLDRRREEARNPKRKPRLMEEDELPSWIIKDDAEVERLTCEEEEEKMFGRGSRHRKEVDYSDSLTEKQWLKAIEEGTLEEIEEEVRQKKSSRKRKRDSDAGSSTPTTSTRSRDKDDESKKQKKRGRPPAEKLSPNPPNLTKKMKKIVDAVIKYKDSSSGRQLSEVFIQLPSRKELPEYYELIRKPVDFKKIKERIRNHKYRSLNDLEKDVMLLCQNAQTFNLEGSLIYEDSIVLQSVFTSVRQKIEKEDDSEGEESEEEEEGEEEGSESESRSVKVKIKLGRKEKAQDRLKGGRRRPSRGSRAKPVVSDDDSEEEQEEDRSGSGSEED
- METHOD: Cellular degradation assay, SMARCA4 (Table 1)
- Format: cell-based
METRIC_NAME: Dmax (%)

1. COc1ccccc1C1(C(=O)N(C)C2CCN(CCC3CCN(c4ccc([C@H]5CCC(=O)NC5=O)c(F)c4)CC3)CC2)CCN(c2cnnc(-c3ccccc3O)c2)CC1 [Example 85]; 41.9

1 = Cn1nccc1C1(C(=O)N2CC3(CN(CC4CCN(c5ccc(C6CCC(=O)NC6=O)cc5)CC4)C3)C2)CCN(c2cnnc(-c3ccccc3O)c2)CC1 (racemic) [Example 93]
2 = O=C1CCC(c2ccc(N3C[C@@H]4CN(CC5CCN(C(=O)C6(c7ccccc7)CCN(c7cnnc(-c8ccccc8O)c7)CC6)CC5)C[C@H]4C3)cc2)C(=O)N1 (mixture of isomers) [Example 160]
3 = O=C1CCC(c2ccc(N3CCC(C(=O)N4CC5(C4)CN(C(=O)C4(c6ccccc6)CCN(c6cnnc(-c7ccccc7O)c6)CC4)C5)CC3)cc2)C(=O)N1 (racemic) [Example 20]
4 = O=C1CC[C@H](c2ccc(N3CCC(CN4CCC5CN(C(=O)C6(c7ccccc7)CCN(c7cnnc(-c8ccccc8O)c7)CC6)C5C4)CC3)cc2)C(=O)N1 (some centres unmarked) [Example 51]
Q: Hello, I need these entries ordered by Dmax, highest reading first. Thanks! Arrange the labels as the request states and list them.
Result: 2, 3, 1, 4
(2: 71.4%, 3: 48.3%, 1: 33.8%, 4: 0.85%)
